{"columns": ["compound", "melting point"],
 "data": [
  ["COc1cc(NC(=O)N[C@@H]2CCC[C@H]2N(C)CCCc2ccc(Cl)cc2)cc(OC)c1OC.Cl (racemic)", "75 to 82 °C"],
  ["COc1ccc(-c2cnc(SCC(=O)N[C@@H]3CCC[C@H]3NCCc3ccc(Cl)cc3)nc2)cc1OC.Cl (racemic)", "181.3 to 185.6 °C"],
  ["CS(=O)(=O)c1ccc(C(=O)N[C@@H]2CCC[C@H]2NCCCc2ccc(Cl)cc2)cc1.Cl (racemic)", "192.3 to 196.8 °C"],
  ["COc1ccc(-c2cnc(SCC(=O)N[C@@H]3CCC[C@H]3NCCCc3ccc(Cl)cc3)nc2)cc1OC.Cl (racemic)", "95.3 to 111.3 °C"],
  ["CS(=O)(=O)c1ccc(C(=O)N[C@@H]2CCC[C@H]2NCCc2ccc(Cl)cc2)cc1.Cl (racemic)", "221.8 to 222.7 °C"],
  ["COc1ccc(-c2cnc(SCC(=O)N[C@@H]3CCC[C@H]3N(C)CCc3ccc(Cl)cc3)nc2)cc1OC.Cl (racemic)", "123.7 to 125.3 °C"],
  ["COc1cc(NC(=O)N[C@@H]2CCC[C@H]2NCCCc2ccc(Cl)cc2)cc(OC)c1OC.Cl (racemic)", "91.3 to 96 °C"],
  ["COc1cc(NC(=O)N[C@@H]2CCC[C@H]2NCCc2ccc(Cl)cc2)cc(OC)c1OC.Cl (racemic)", "97 to 101.5 °C"]
]}
